Cited source: PubChem BioAssay AID2060332

Tested on: LG0567-F671-PDC multi-cell spheroid viability;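 further: viability read after 7 days of drug exposure; 100% = DMSO vehicle control luminescence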
Experiment summary: Anticancer human tumor LG0567-F671-PDC patient-derived lung adenocarcinoma cell line growth inhibition [IpAb]
Measurement setup: second compound 1 µM; first compound 0.0316 µM; active compounds read low
Parameter: viability, T/C (%)
Entry rule: numbers only, all in %.

In: Reported viability, T/C for LG0567-F671-PDC multi-cell spheroid viability, given Cn1ncc(Cl)c1-c1cc(C(=O)NC(CN)Cc2cccc(F)c2)sc1Cl (stereo not given) + CCN1CCN(Cc2ccc(Nc3ncc(F)c(-c4cc(F)c5nc(C)n(C(C)C)c5c4)n3)nc2)CC1 ?
Out: 59

In: For the record CC1(C)CCC(CN2CCN(c3ccc(C(=O)NS(=O)(=O)c4ccc(NCC5CCOCC5)c([N+](=O)[O-])c4)c(Oc4cnc5[nH]ccc5c4)c3)CC2)=C(c2ccc(Cl)cc2)C1 + CCN1CCN(Cc2ccc(Nc3ncc(F)c(-c4cc(F)c5nc(C)n(C(C)C)c5c4)n3)nc2)CC1 , what value of viability, T/C is listed for LG0567-F671-PDC multi-cell spheroid viability?
Out: 69.6

In: For the record CC1(C)CCC(CN2CCN(c3ccc(C(=O)NS(=O)(=O)c4ccc(NCC5CCOCC5)c([N+](=O)[O-])c4)c(Oc4cnc5[nH]ccc5c4)c3)CC2)=C(c2ccc(Cl)cc2)C1 + CC(C)NCC(C(=O)N1CCN(c2ncnc3c2C(C)CC3O)CC1)c1ccc(Cl)cc1 , what value of viability, T/C is listed for LG0567-F671-PDC multi-cell spheroid viability?
Out: 63.5

In: Entry Cn1ncnc1[C@H]1c2n[nH]c(=O)c3cc(F)cc(c23)N[C@@H]1c1ccc(F)cc1 + CC(C)NCC(C(=O)N1CCN(c2ncnc3c2C(C)CC3O)CC1)c1ccc(Cl)cc1 , system LG0567-F671-PDC multi-cell spheroid viability: what viability, T/C was measured?;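 further: viability read after 7 days of drug exposure; 100% = DMSO vehicle control luminescence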
Out: 27.8

In: Give the reported viability, T/C for C=CCn1c(=O)c2cnc(Nc3ccc(N4CCN(C)CC4)cc3)nc2n1-c1cccc(C(C)(C)O)n1 + CC(C)NCC(C(=O)N1CCN(c2ncnc3c2C(C)CC3O)CC1)c1ccc(Cl)cc1 (system: LG0567-F671-PDC multi-cell spheroid viability).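 Further: viability read after 7 days of drug exposure; 100% = DMSO vehicle control luminescence.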
Out: 69.6
